Attribution: paper PMC5062570

Reported IC50 values follow for various compounds
Molecular target: CatD (Homo sapiens, UniProt P07339)
Experiment: CatD purified enzyme fluorescence polarization assay
Assay type: biochemical
Design: final maturation into a non-covalently associated heavy chain and light chain; purchased Sigma C8696; host or cells: human liver
Conditions: purified human enzyme, fluorescence polarization, substrate-based
Sequence (P07339 65-162 limits assumed): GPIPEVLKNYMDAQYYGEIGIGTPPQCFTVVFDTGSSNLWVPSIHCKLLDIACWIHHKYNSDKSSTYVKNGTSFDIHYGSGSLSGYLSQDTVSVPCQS
Sequence (P07339 169-412 limits assumed): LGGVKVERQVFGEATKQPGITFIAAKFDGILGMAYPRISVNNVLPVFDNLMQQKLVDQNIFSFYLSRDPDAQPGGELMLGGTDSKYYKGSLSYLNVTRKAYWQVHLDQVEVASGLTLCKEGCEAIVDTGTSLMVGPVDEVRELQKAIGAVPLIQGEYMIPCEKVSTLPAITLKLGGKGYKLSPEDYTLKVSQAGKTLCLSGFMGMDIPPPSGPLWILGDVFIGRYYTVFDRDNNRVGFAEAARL
Please state the figure in µM; there is no need to write the unit.

Observe how each entry below is paired with its result.
[
  {
    "compound": "Cc1cc([C@H]2C[C@H]3[C@@H](CF)SC(N)=N[C@@]3(c3ccc(F)cc3F)CO2)on1 [PF-3195]",
    "unitsOfMeasure": "µM",
    "IC50": 9
  },
  {
    "compound": "NC1=N[C@@]2(c3ccc(F)cc3F)CO[C@@H](c3nc(CO)co3)C[C@H]2[C@@H](CF)S1 [PF-7152]",
    "unitsOfMeasure": "µM",
    "IC50": 37
  },
  {
    "compound": "Cc1coc([C@H]2C[C@H]3[C@@H](CF)SC(N)=N[C@@]3(c3ccc(F)cc3F)CO2)n1 [PF-1283]",
    "unitsOfMeasure": "µM",
    "IC50": 13
  }
]

Query: Which IC50 value is on record for C[C@H]1SC(N)=N[C@@]2(c3ccc(F)cc3F)CO[C@@H](c3cc(CO)no3)C[C@@H]12 [PF-9159] ?
Result: 17

====

List of IC50 tested on BACE2 (Homo sapiens).
Please state the figure in nM; there is no need to write the unit.

[
  {
    "compound": "NC1=N[C@@]2(c3ccc(F)cc3F)CO[C@@H](c3cc(CO)no3)C[C@H]2[C@@H](CF)S1",
    "IC50 (nM)": 1600
  }
]

Query: Please provide the recorded IC50 for COc1cnc(C(=O)Nc2ccc(F)c([C@]3(C)CS(=O)(=O)N(C)C(N)=N3)c2)cn1 [SG1, reference compound] , tested on BACE2 (Homo sapiens).
Result: 17

Query: Please provide the recorded IC50 for `Cc1coc([C@H]2C[C@H]3[C@@H](CF)SC(N)=N[C@@]3(c3ccc(F)cc3F)CO2)n1` , tested on BACE2 (Homo sapiens).
Result: 95

====

Reported CatD potency increase in live cells values follow for various compounds
Biological target: UniProtKB P07339
Assay: CatD cellular assay (competition of PF-7802 photolabelling in live ARPE-19 cells)
Assay type: cell-based
Design: host or cells: ARPE-19
Settings: CatD enzyme IC50 versus CatD cellular IC50
Sequence (P07339 169-412 limits assumed): as above
Sequence (P07339 65-162 limits assumed): as the sequence (P07339 65-162 limits assumed) above
Please state the figure in x; there is no need to write the unit.

Observe how each entry below is paired with its result.
[
  {
    "compound": "C[C@@]1(c2cc(-c3cncnc3)c(F)cc2F)CCSC(N)=N1 [LY2811376, reference compound]",
    "measuredOn": "UniProtKB P07339",
    "CatD potency increase in live cells / x": 95
  },
  {
    "compound": "NC1=N[C@@]2(c3ccc(F)cc3F)CO[C@@H](c3nc(CO)co3)C[C@H]2[C@@H](CF)S1",
    "measuredOn": "UniProtKB P07339",
    "CatD potency increase in live cells / x": 64
  },
  {
    "compound": "Cc1coc([C@H]2C[C@H]3[C@@H](CF)SC(N)=N[C@@]3(c3ccc(F)cc3F)CO2)n1",
    "measuredOn": "UniProtKB P07339",
    "CatD potency increase in live cells / x": 54
  },
  {
    "compound": "Cc1cc([C@H]2C[C@H]3[C@@H](C)SC(N)=N[C@@]3(c3ccc(F)cc3F)CO2)on1",
    "measuredOn": "UniProtKB P07339",
    "CatD potency increase in live cells / x": 86
  },
  {
    "compound": "Cc1cc([C@H]2C[C@H]3[C@@H](CF)SC(N)=N[C@@]3(c3ccc(F)cc3F)CO2)on1",
    "measuredOn": "UniProtKB P07339",
    "CatD potency increase in live cells / x": 17
  },
  {
    "compound": "NC1=N[C@@]2(c3ccc(F)cc3F)CO[C@@H](c3cc(CO)no3)C[C@H]2[C@@H](CF)S1",
    "measuredOn": "UniProtKB P07339",
    "CatD potency increase in live cells / x": 17
  }
]

Proceeding to the next compound to report its CatD potency increase in live cells.
Query: Please provide the recorded CatD potency increase in live cells for `C[C@H]1SC(N)=N[C@@]2(c3ccc(F)cc3F)CO[C@@H](c3cc(CO)no3)C[C@@H]12` , tested on UniProtKB P07339.
Result: 150
